Reported pIC50 values for the following molecules.
# Tested target: Recombinant human cathepsin S (CatS) (Homo sapiens)
# Sequence (P25774 115-331): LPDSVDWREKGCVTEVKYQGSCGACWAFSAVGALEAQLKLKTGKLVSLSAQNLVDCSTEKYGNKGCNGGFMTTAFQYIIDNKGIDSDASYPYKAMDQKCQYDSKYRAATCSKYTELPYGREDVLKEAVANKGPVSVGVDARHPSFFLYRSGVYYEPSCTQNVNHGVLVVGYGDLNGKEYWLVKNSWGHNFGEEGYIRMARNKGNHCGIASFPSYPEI
# Experiment: Recombinant human cathepsin S (CatS) inhibition assay, fluorogenic substrate Z-Valine-Valine-Arginine-AMC;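 note: Baculovirus-expressed CatS in pH 5.0 sodium acetate buffer with DTT and NaCl, fluorescence read each minute over 20 min, inhibition derived from rate slope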
# Condition set: CatS IC50
The quantity pIC50 is defined as the negative base-10 logarithm of the molar concentration.

Example molecules with recorded pIC50:
CS(=O)(=O)N1CCc2c(c(-c3ccc(Cl)c(C#Cc4ccc(CN5CCc6ccccc6C5)cc4)c3)nn2CCCN2CCOCC2)C1 [Example 442] ... 6.52
CS(=O)(=O)N1CCc2c(c(-c3ccc(Cl)c(CCc4cccc(CNCC5CCOCC5)c4)c3)nn2CCCN2CCOCC2)C1 [Example 186] ... 6.16

Inquiry: Give the measured pIC50 of CN1CCN(C(=O)[C@@H]2Cc3ccc(C#Cc4cc(-c5nn(CCCN6CCOCC6)c6c5CN(S(C)(=O)=O)CC6)ccc4Cl)cc3CN2)CC1 [Example 485] .
Reply text: 7.30

Inquiry: Quick one: pIC50 of NC(=O)N1CCc2c(c(-c3ccc(Cl)c(C#Cc4ccc(CNCc5ccc(OC(F)F)cc5)cc4)c3)nn2CCCN2CCSCC2)C1 [Example 176] ?
Reply text: 6.64

Inquiry: For C[C@H]1COCCN1CCCn1nc(-c2ccc(Cl)c(C#Cc3ccc(CNCc4ccc(Cl)cc4)cc3)c2)c2c1CCN(C(N)=O)C2 [Example 401] , what is its reported pIC50?
Reply text: 6.96

Inquiry: For CS(=O)(=O)N1CCc2c(c(-c3ccc(Cl)c(C#Cc4ccc(C(F)(F)F)cc4)c3)nn2CCCN2CCOCC2)C1 [Example 30] , what is its reported pIC50?
Reply text: 6.37
